System: Candida albicans
Assay: Antifungal activity against 24 hrs cultures of 10^7 cells/ml biofilm-derived Candida albicans BF-1 planktonic cells hrs by XTT reduction method
Format: functional
Conditions: BF-1, 24 h
# MIC per record follows
Just the number in µg/mL, nothing appended.

INPUT: Lookup: MIC / Candida albicans / C[C@@H]1[C@H](O)[C@@H](C)/C=C/C=C/C=C/C=C/C=C/C=C/C=C/[C@H](O[C@@H]2O[C@H](C)[C@@H](O)[C@H](N)[C@@H]2O)C[C@@H]2O[C@](O)(C[C@@H](O)C[C@@H](O)[C@H](O)CC[C@@H](O)C[C@@H](O)CC(=O)O[C@H]1C)C[C@H](O)[C@H]2C(=O)O
OUTPUT: 1.87

Could you now consider this next compound?
INPUT: Test system Candida albicans; read-out MIC; what value for CC[C@H](C)C[C@H](C)CCCCCCCCC(=O)N[C@H]1C[C@@H](O)[C@@H](NCCN)NC(=O)[C@@H]2[C@@H](O)CCN2C(=O)[C@H]([C@H](O)CCN)NC(=O)[C@H]([C@H](O)[C@@H](O)c2ccc(O)cc2)NC(=O)[C@@H]2C[C@@H](O)CN2C(=O)[C@H]([C@@H](C)O)NC1=O ?
OUTPUT: 0.4

* * *

Reported values of MIC for individual entries
Test system: Candida albicans
Experiment: Antifungal activity against 48 hrs cultures of 10^7 cells/ml Candida albicans BF-1 planktonic cells by XTT reduction method
Assay type: functional
Details: BF-1, 48 h
Give the quantity in µg/mL, number only.

INPUT: Fill in: MIC of CC[C@H](C)C[C@H](C)CCCCCCCCC(=O)N[C@H]1C[C@@H](O)[C@@H](NCCN)NC(=O)[C@@H]2[C@@H](O)CCN2C(=O)[C@H]([C@H](O)CCN)NC(=O)[C@H]([C@H](O)[C@@H](O)c2ccc(O)cc2)NC(=O)[C@@H]2C[C@@H](O)CN2C(=O)[C@H]([C@@H](C)O)NC1=O is ___
OUTPUT: 0.4

# input for lookup
INPUT: Please give the measured MIC for this compound: C[C@@H]1[C@H](O)[C@@H](C)/C=C/C=C/C=C/C=C/C=C/C=C/C=C/[C@H](O[C@@H]2O[C@H](C)[C@@H](O)[C@H](N)[C@@H]2O)C[C@@H]2O[C@](O)(C[C@@H](O)C[C@@H](O)[C@H](O)CC[C@@H](O)C[C@@H](O)CC(=O)O[C@H]1C)C[C@H](O)[C@H]2C(=O)O
OUTPUT: 0.93

* * *

Test system: Candida albicans
Assay: Antifungal activity against 48 hrs cultures of 10^8 cells/ml Candida albicans ATCC 90028 biofilms by XTT reduction assay
Settings: ATCC 90028, 48 h
observation_type: MIC (µg/mL)
Give your result in µg/mL as a bare value.

The examples below pair each entry with its known result.
INPUT: Which MIC value belongs to CC[C@H](C)C[C@H](C)CCCCCCCCC(=O)N[C@H]1C[C@@H](O)[C@@H](NCCN)NC(=O)[C@@H]2[C@@H](O)CCN2C(=O)[C@H]([C@H](O)CCN)NC(=O)[C@H]([C@H](O)[C@@H](O)c2ccc(O)cc2)NC(=O)[C@@H]2C[C@@H](O)CN2C(=O)[C@H]([C@@H](C)O)NC1=O ?
OUTPUT: 100

INPUT: Now this one: C[C@@H]1[C@H](O)[C@@H](C)/C=C/C=C/C=C/C=C/C=C/C=C/C=C/[C@H](O[C@@H]2O[C@H](C)[C@@H](O)[C@H](N)[C@@H]2O)C[C@@H]2O[C@](O)(C[C@@H](O)C[C@@H](O)[C@H](O)CC[C@@H](O)C[C@@H](O)CC(=O)O[C@H]1C)C[C@H](O)[C@H]2C(=O)O
OUTPUT: 15

Next:
INPUT: Given CC(=O)N1CCN(c2ccc(OCC3COC(Cn4ccnc4)(c4ccc(Cl)cc4Cl)O3)cc2)CC1 (centres undefined) , state its recorded MIC.
OUTPUT: 64
